# Substrate: O=C(/C=C/c1ccc(O)cc1)c1c(O)cc(O)cc1O
# test-method-notes: purified protein
measure: kcat (min⁻¹)
Number only, in min⁻¹; omit the unit.

Tell me the measured kcat of AtCHI-1 (Arabidopsis thaliana) (protein) MSSSNACASPSPFPAVTKLHVDSVTFVPSVKSPASSNPLFLGGAGVRGLDIQGKFVIFTVIGVYLEGNAVPSLSVKWKGKTTEELTESIPFFREIVTGAFEKFIKVTMKLPLTGQQYSEKVTENCVAIWKQLGLYTDCEAKAVEKFLEIFKEETFPPGSSILFALSPTGSLTVAFSKDDSIPETGIAVIENKLLAEAVLESIIGKNGVSPGTRLSVAERLSQLMMKNKDEKEVSDHSVEEKLAKEN , please.
379
